IC50 values, listed per item
test system: human colorectal adenocarcinoma cell line, HT-29; assay: MTT cell viability assay on HT-29, 72 h exposure; assay type: cell-based; conditions: read-out: IC50 (±SD), HT-29, HT-29, 72 h of exposure
observable: IC50

structure_notation=[Cl][Zr+2][Cl].c1cc[cH-]c1.c1cc[cH-]c1 observable=IC50 value_observed="774 µM"
structure_notation=[Cl-].[Cl-].[V+4].c1cc[cH-]c1.c1cc[cH-]c1 observable=IC50 value_observed="33 µM"
structure_notation=[Cl-].[Cl-].[Hf+4].c1cc[cH-]c1.c1cc[cH-]c1 observable=IC50 value_observed="564 µM"
structure_notation=C1CCCC1.C1CCCC1.[Cl][Nb][Cl] observable=IC50 value_observed="266 µM"

----------
molecular target: apo-human transferrin (apo-hTf) (Homo sapiens); test: Fluorescence resonance energy transfer; assay type: binding; conditions: k^2=2/3, n=1.336, ØD=0.118
The threshold is 9 nm. Values of binding distance r (donor-acceptor) beneath it are tagged yes (1); values meeting or exceeding it are tagged no (0).

molecule="N.N.[Cl][Pt][Cl] [(NH3)2Pt(II)Cl2, cis-diamminedichloroplatinum (II), reference compound]" category="no (0)"
molecule="[Cl][Zr+2][Cl].c1cc[cH-]c1.c1cc[cH-]c1 [Cp2ZrCl2]" category="no (0)"
molecule="C1CCCC1.C1CCCC1.[Cl][W][Cl] [Cp2WCl2]" category="yes (1)"
molecule="[Cl-].[Cl-].[V+4].c1cc[cH-]c1.c1cc[cH-]c1 [Cp2VCl2]" category="yes (1)"
molecule="[Cl-].[Cl-].[Hf+4].c1cc[cH-]c1.c1cc[cH-]c1 [Cp2HfCl2]" category="no (0)"
molecule="C1CCCC1.C1CCCC1.[Cl][Nb][Cl] [Cp2NbCl2]" category="yes (1)"
molecule="[Cl-].[Cl-].[Mo+4].c1cc[cH-]c1.c1cc[cH-]c1 [Cp2MoCl2]" category="yes (1)"
molecule="[Cl-].[Cl-].[Ti+4].c1cc[cH-]c1.c1cc[cH-]c1 [Cp2TiCl2, titanocene dichloride]" category="yes (1)"

----------
target: apo-human transferrin (apo-hTf) (Homo sapiens, UniProt P02787); experiment: Fluorescence quenching of apo-hTf; assay type: binding; conditions: 296 K, kq=Ksv/τ0
Sequence (P02787 20-698): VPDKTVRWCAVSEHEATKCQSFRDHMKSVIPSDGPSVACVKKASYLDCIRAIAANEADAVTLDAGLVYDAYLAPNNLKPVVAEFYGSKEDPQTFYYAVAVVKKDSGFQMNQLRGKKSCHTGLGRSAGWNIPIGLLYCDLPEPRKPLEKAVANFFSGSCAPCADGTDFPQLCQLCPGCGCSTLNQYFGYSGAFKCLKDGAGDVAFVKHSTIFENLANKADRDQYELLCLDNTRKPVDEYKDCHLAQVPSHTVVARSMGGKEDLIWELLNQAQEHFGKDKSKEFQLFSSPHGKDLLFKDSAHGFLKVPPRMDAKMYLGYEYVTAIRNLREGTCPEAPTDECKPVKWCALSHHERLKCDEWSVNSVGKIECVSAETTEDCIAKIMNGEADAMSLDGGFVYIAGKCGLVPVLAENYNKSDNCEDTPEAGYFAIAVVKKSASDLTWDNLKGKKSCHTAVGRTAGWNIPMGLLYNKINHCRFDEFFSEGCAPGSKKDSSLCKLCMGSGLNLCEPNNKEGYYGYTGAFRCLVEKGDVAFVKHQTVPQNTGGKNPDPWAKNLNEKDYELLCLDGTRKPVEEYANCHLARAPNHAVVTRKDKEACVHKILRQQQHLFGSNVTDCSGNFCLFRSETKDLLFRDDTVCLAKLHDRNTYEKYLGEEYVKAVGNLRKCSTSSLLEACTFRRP
observable: biomolecular quenching rate constant kq (M⁻¹ s⁻¹)

compound="C1CCCC1.C1CCCC1.[Cl][W][Cl] [Cp2WCl2]" value_observed=1.61e+11
compound="C1CCCC1.C1CCCC1.[Cl][Nb][Cl] [Cp2NbCl2]" value_observed=2.523e+12
compound="[Cl-].[Cl-].[Ti+4].c1cc[cH-]c1.c1cc[cH-]c1 [Cp2TiCl2, titanocene dichloride]" value_observed=1.53e+11

----------
Stern-Volmer quenching constant Ksv values, listed per item
target: apo-human transferrin (apo-hTf) (Homo sapiens, UniProt P02787); assay: Fluorescence quenching of apo-hTf; format: binding; settings: 317 K, pH 7.4
observable: Stern-Volmer quenching constant Ksv (M⁻¹)

compound=C1CCCC1.C1CCCC1.[Cl][Nb][Cl] assayed_system="apo-human transferrin (apo-hTf) (Homo sapiens, UniProt P02787)" value_observed=33230
compound="[Cl-].[Cl-].[Ti+4].c1cc[cH-]c1.c1cc[cH-]c1 [Cp2TiCl2, titanocene dichloride]" assayed_system="apo-human transferrin (apo-hTf) (Homo sapiens, UniProt P02787)" value_observed=1930
compound=[Cl-].[Cl-].[Hf+4].c1cc[cH-]c1.c1cc[cH-]c1 assayed_system="apo-human transferrin (apo-hTf) (Homo sapiens, UniProt P02787)" value_observed=1240

From: paper PMC7668563
